Target: P2X purinoceptor 3 (Rattus norvegicus, UniProt P49654)
Sequence (P49654 whole entry): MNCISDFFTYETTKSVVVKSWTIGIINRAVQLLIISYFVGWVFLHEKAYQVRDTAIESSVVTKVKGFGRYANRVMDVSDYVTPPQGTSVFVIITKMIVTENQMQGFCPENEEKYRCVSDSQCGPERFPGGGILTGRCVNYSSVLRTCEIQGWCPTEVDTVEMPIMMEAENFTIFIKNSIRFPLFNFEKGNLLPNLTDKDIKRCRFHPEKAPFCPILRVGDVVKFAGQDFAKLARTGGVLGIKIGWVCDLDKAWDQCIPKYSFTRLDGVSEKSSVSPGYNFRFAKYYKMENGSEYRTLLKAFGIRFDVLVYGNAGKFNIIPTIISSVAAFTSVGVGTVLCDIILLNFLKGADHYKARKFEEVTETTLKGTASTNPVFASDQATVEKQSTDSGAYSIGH
Test: Antagonist activity against rat P2X3 receptor expressed in CHOK1 cells assessed as inhibition of alpha,beta-meATP-induced calcium response incubated for 20 mins by Fluo-3AM dye based FLIPR assay
Measured pKi by item
Field pKi (float): negative decimal logarithm of the concentration in molar.

Field: example entries. Status: answers known.
Cc1ccc(-c2cc(C(=O)NCc3cnc(C)cn3)cc3c2ccn3-c2ccccc2)nc1
7.73
Cc1ccc(-c2cc(C(=O)N[C@@H](C)CO)cc3c2ccn3-c2ccccc2)nc1
6.99

Shifting focus to the compound that follows.
Value sought: pKi, system P2X purinoceptor 3 (Rattus norvegicus, UniProt P49654), item Cc1ccc(-c2cc(C(=O)N[C@@H](C)CO)cc3c2cnn3CC(C)C)nc1 . Result: 6.54
